Measured emission maximum of individual entries
Experiment: solvent given as SMILES
Conditions: in CO
assayMetric: emission maximum (nm)

[[record]]
smilestext = "O=CN1N=C(c2ccc(Br)cc2)C[C@@H]1c1ccccc1"
assaymetric = "emission maximum"
obsvalue = 350

[[record]]
smilestext = "COC(=O)c1nc2c(OCc3ccccc3)nc(N)nc2n1Cc1ccccc1"
assaymetric = "emission maximum"
obsvalue = 405

[[record]]
smilestext = "CN(C)c1ccc(C#Cc2ccc3ccc4ccc(C#Cc5ccc(N(C)C)cc5)c5ccc2c3c45)cc1"
assaymetric = "emission maximum"
obsvalue = 555.1

[[record]]
smilestext = "CC1(C)C(/C=C/C=C/C=C/C=C2/N(CCCCS(=O)(=O)[O-])c3ccc4ccccc4c3C2(C)C)=[N+](CCCCS(=O)(=O)[O-])c2ccc3ccccc3c21"
assaymetric = "emission maximum"
obsvalue = 817

[[record]]
smilestext = "Nc1ccc(C#Cc2ccc3ccc4ccc(C#Cc5ccc(N)cc5)c5ccc2c3c45)cc1"
assaymetric = "emission maximum"
obsvalue = 557

[[record]]
smilestext = "c1ccc(N(c2ccccc2)c2ccc(-c3cnc(-c4ccncc4)s3)cc2)cc1"
assaymetric = "emission maximum"
obsvalue = 566

[[record]]
smilestext = "COc1ccc(O)cc1C=O"
assaymetric = "emission maximum"
obsvalue = 489

[[record]]
smilestext = "CN(C)c1c2ccccc2cc2ccccc12"
assaymetric = "emission maximum"
obsvalue = 389

[[record]]
smilestext = "Cc1ccc(C(=O)NN2C3=C(CC4=C2CCCC4=O)C(=O)CCC3)cc1"
assaymetric = "emission maximum"
obsvalue = 447

[[record]]
smilestext = "CN(C)CCNCc1c2ccccc2cc2ccccc12"
assaymetric = "emission maximum"
obsvalue = 388


----------
emission maximum overview
Test: solvent given as SMILES
Details: in ClCCl
assayMetric: emission maximum

[[record]]
smilestext = "CCCN(c1ccccc1)c1ccc2c(c1)C(CC)(CC)c1cc(/C=C/c3ccc(/C=C(\\C#N)C(=O)O)s3)ccc1-2"
assaymetric = "emission maximum"
obsvalue = "600 nm"

[[record]]
smilestext = "COc1ccc(/C=C/c2cc(/C=C/c3ccc(OC)cc3)nc(/C=C/c3ccc4cc(OC)ccc4c3)n2)cc1"
assaymetric = "emission maximum"
obsvalue = "443 nm"

[[record]]
smilestext = "c1ccc2c(-c3c4ccccc4c(-c4ccc(-c5ccc(-n6c7ccccc7c7ccccc76)cc5)cc4)c4ccccc34)cccc2c1"
assaymetric = "emission maximum"
obsvalue = "420 nm"

[[record]]
smilestext = "CC[C@H](C)COc1ccc(C2=C3C(C)=C(I)C(C)=[N+]3[B-](F)(F)n3c(C)c(I)c(C)c32)cc1"
assaymetric = "emission maximum"
obsvalue = "557 nm"

[[record]]
smilestext = "CC(C)CCCCN1CCc2c1ccc1c3c(ccc21)CCCC3=O"
assaymetric = "emission maximum"
obsvalue = "595 nm"

[[record]]
smilestext = "CCCCN(CCCC)c1ccc(C#Cc2cc(C#Cc3c(F)c(F)c(F)c(F)c3F)c(C#Cc3ccc(N(CCCC)CCCC)cc3)cc2C#Cc2c(F)c(F)c(F)c(F)c2F)cc1"
assaymetric = "emission maximum"
obsvalue = "563 nm"

[[record]]
smilestext = "CC1(C)c2ccccc2-c2cc3c(cc21)c1ccccc1n3-c1ccccc1"
assaymetric = "emission maximum"
obsvalue = "391 nm"

[[record]]
smilestext = "Cn1c(=O)c(/N=N/c2cc(S(=O)(=O)O)ccc2C(=O)O)c(O)c2ccccc21"
assaymetric = "emission maximum"
obsvalue = "516 nm"


----------
Assay: solvent given as SMILES
Settings: in CC#N
Classify by measured emission maximum: true (1) if it is equal to or exceeds 500 nm, false (0) if it is smaller.

[[record]]
smilestext = "CCCCCCC(CCCCCC)n1c(=O)c2c3ccc4cccc5c6cccc7ccc(c2c1=O)c(c76)c3c45"
classlabel = "true (1)"

[[record]]
smilestext = "c1cc2c3c(cccc3c1)C(N1CCOCCOCCN(C3=Nc4cccc5cccc3c45)CCOCC1)=N2"
classlabel = "true (1)"

[[record]]
smilestext = "COC(=O)c1cc(=O)n(C)c2cc(-c3ccc(N(C)C)cc3)sc12"
classlabel = "true (1)"

[[record]]
smilestext = "CCC1(CC)c2cc(/C=C/c3ccc(/C=C/c4ccc5c(c4)C(CC)(CC)c4cc(N6c7ccccc7Sc7ccccc76)ccc4-5)cc3)ccc2-c2ccc(N3c4ccccc4Sc4ccccc43)cc21"
classlabel = "false (0)"

[[record]]
smilestext = "COc1ccc(C2=CC(c3ccc4cc(N(C)C)ccc4c3)=[O+][B-](F)(F)O2)cc1"
classlabel = "true (1)"

[[record]]
smilestext = "Cc1ccc(-c2ccc(/C=C/c3ccc(Cl)cc3)cn2)nc1"
classlabel = "false (0)"

[[record]]
smilestext = "CN(C)c1ccc(C(=O)c2ccccc2)cc1"
classlabel = "true (1)"

[[record]]
smilestext = "c1ccc2c(-c3cc(-c4nccs4)nc(-c4nccs4)c3)cccc2c1"
classlabel = "false (0)"

[[record]]
smilestext = "Cn1cc(/C=C/C(=O)c2ccccc2)c2ccccc21"
classlabel = "false (0)"

[[record]]
smilestext = "CC(C)(C)c1ccc(-c2cc3c(-c4ccc(C(C)(C)C)cc4)c4cccc5c(-c6ccc(C(C)(C)C)cc6)cc6c(-c7ccc(C(C)(C)C)cc7)c7cccc2c7c3c6c54)cc1"
classlabel = "false (0)"

[[record]]
smilestext = "COc1ccc(/C=C/c2ccccc2)cc1OC"
classlabel = "false (0)"

[[record]]
smilestext = "CC(C)(C)c1ccc(C2=c3c(c4ccc(C(C)(C)C)cc4c4cc(C(C)(C)C)ccc34)=[N+]3C2=C(c2ccccc2)c2c(-c4ccc(C(C)(C)C)cc4)c4c5ccc(C(C)(C)C)cc5c5cc(C(C)(C)C)ccc5c4n2[B-]3(F)F)cc1"
classlabel = "true (1)"

[[record]]
smilestext = "CCCCCCN(c1ccccc1)c1ccc2c(c1)C(CC)(CC)c1cc(/C=C/c3ccc(/C=C(\\C#N)C(=O)O)s3)ccc1-2"
classlabel = "true (1)"

[[record]]
smilestext = "Cc1cc(C)c(B(c2c(C)cc(C)cc2C)c2cc3cc(N(C)C)c4ccccc4c3c3c2ccc2ccccc23)c(C)c1"
classlabel = "true (1)"

[[record]]
smilestext = "CN(C)c1ccc(-c2ccc(-c3ccc(N(C)C)cc3)c3nc(-c4ccccc4)c(-c4ccccc4)nc23)cc1"
classlabel = "true (1)"

[[record]]
smilestext = "OC1(c2ccc(-c3cccs3)s2)CCC1"
classlabel = "false (0)"

[[record]]
smilestext = "CC1=N/C(=C\\c2ccc(N(C)C)cc2)C(=O)N1C"
classlabel = "false (0)"


----------
Experiment: solvent given as SMILES
Details: in ClCCl
assayMetric: emission maximum

[[record]]
molecule = "CCCCN(CCCC)c1ccc2c#cc3cc4c#cc5ccc(C(F)(F)F)cc5c#cc#cc5cc(C(F)(F)F)ccc5c#cc4cc3c#cc3ccc(N(CCCC)CCCC)cc3c#cc#cc2c1"
assaymetric = "emission maximum"
obsvalue = "554 nm"

[[record]]
molecule = "CCN(CC)c1ccc2cc(-c3cn4ccccc4n3)c(=O)oc2c1"
assaymetric = "emission maximum"
obsvalue = "478 nm"

[[record]]
molecule = "CC(C)(C)NC(=O)c1ccc(-c2cc3ccccc3s2)c2ccc3c4ccccc4c4ccccc4c3c12"
assaymetric = "emission maximum"
obsvalue = "441 nm"

[[record]]
molecule = "CCN(CC)c1ccc2cc(-c3csc(N)c3C#N)c(=O)oc2c1"
assaymetric = "emission maximum"
obsvalue = "464 nm"

[[record]]
molecule = "Cc1ccc2nc3cc4c(cc3c(-c3ccccc3)c2c1)[Si](C)(C)O[Si](C)(C)O[Si]4(C)C"
assaymetric = "emission maximum"
obsvalue = "502 nm"

[[record]]
molecule = "COC(=O)c1[nH]c(-c2ccc([N+](=O)[O-])cc2)c2nnc3ccc(OC)cc3c12"
assaymetric = "emission maximum"
obsvalue = "549 nm"

[[record]]
molecule = "CCOC(=O)C1=C(C(=O)OCC)C2(c3ccccc3-c3ccccc32)[C@@H](c2ccccc2)C=C2c3cc(OC)c(OC)cc3CCN21"
assaymetric = "emission maximum"
obsvalue = "430 nm"

[[record]]
molecule = "F[B-]1(F)n2cccc2C(c2c3ccccc3c(-c3ccccc3)c3ccccc23)=C2C=CC=[N+]21"
assaymetric = "emission maximum"
obsvalue = "526 nm"

[[record]]
molecule = "CCOC(=O)COc1ccc(/C=C/C2=C3c4ccccc4C(c4ccc[nH]4)=[N+]3[B-](F)(F)n3ccc(C)c32)cc1"
assaymetric = "emission maximum"
obsvalue = "631 nm"

[[record]]
molecule = "O=P1(c2ccccc2)c2cccc3c4c5ccccc5c5ccccc5c4c4ccc1n4c23 (stereo not drawn)"
assaymetric = "emission maximum"
obsvalue = "490 nm"

[[record]]
molecule = "CN(C)c1ncc2nc(C#N)n(Cc3ccccc3)c2n1"
assaymetric = "emission maximum"
obsvalue = "429 nm"

[[record]]
molecule = "COc1ccc(-c2cccc3ncc(-c4ccccc4)n23)cc1"
assaymetric = "emission maximum"
obsvalue = "468 nm"

[[record]]
molecule = "O=P1(c2ccccc2)C(c2ccccc2)=Cc2cc3ccccc3cc21 (stereo not drawn)"
assaymetric = "emission maximum"
obsvalue = "428 nm"

[[record]]
molecule = "c1ccc(-n2c(-c3ccc(-c4ccc(-c5ccc(-c6nc7c8ccccc8c8ccccc8c7n6-c6ccccc6)cc5)cc4)cc3)nc3ccccc32)cc1"
assaymetric = "emission maximum"
obsvalue = "432 nm"

[[record]]
molecule = "COC(=O)c1ccc(C2=C3C=c4sccc4=[N+]3[B-](F)(F)n3c2cc2sccc23)cc1"
assaymetric = "emission maximum"
obsvalue = "604 nm"

[[record]]
molecule = "c1cc2c([nH]c3c4[nH]c5sccc5c4c4nsnc4c23)s1"
assaymetric = "emission maximum"
obsvalue = "533 nm"

[[record]]
molecule = "CC(C)(C)c1ccc(-c2nc3c4ccc(-c5ccccc5)cc4c4cc(-c5ccccc5)ccc4c3n2-c2ccc(C(C)(C)C)cc2)cc1"
assaymetric = "emission maximum"
obsvalue = "390 nm"

[[record]]
molecule = "COc1ccc(-c2cnc3cccc(-c4ccccc4)n23)cc1"
assaymetric = "emission maximum"
obsvalue = "484 nm"


The reported measurements were obtained from the Deep4Chem optical property database.
